species: Rattus norvegicus; conditions: Membrane, 10 uM
Description: Displacement of [3H]flunitrazepam from benzodiazepine receptor in rat neuronal membranes at 10 uM
PROPERTY_LABEL: inhibition (%)
Unit % implied. Number only.

>>> experimental_value("Fc1ccccc1-c1noc(Cn2cncn2)n1")
2.2

Ask: Would you kindly share the measured inhibition for `Fc1cccc(-c2noc(Cn3cncn3)n2)c1` ?
Reply: -1.6

Ask: Would you kindly share the measured inhibition for `Clc1ccc(-c2noc(Cn3cncn3)n2)cc1` ?
Reply: -8

Ask: Would you kindly share the measured inhibition for `c1ccc(-c2nc(Cn3cncn3)no2)cc1` ?
Reply: -3.1

Ask: Would you kindly share the measured inhibition for `Clc1ccc(-c2noc(Cn3ccnc3)n2)cc1` ?
Reply: 0.2

Ask: Would you kindly share the measured inhibition for `Cc1cccc(-c2noc(Cn3cncn3)n2)c1` ?
Reply: -1.1

Ask: Would you kindly share the measured inhibition for `c1ccc(-c2noc(Cn3ccnc3)n2)cc1` ?
Reply: 0.6

Ask: Would you kindly share the measured inhibition for `c1ccc(-c2noc(Cn3cncn3)n2)cc1` ?
Reply: 2.7
